# tested_on: Tyrosine-protein kinase BTK (Homo sapiens)
recorded_endpoint: IC50 (µM)

Sample answers from the record:
| input_smiles | IC50 / µM |
| --- | --- |
| COc1nc2ccccc2cc1-c1n[nH]c(=O)[nH]1 | 3.16 |
| O=c1[nH]nc(-c2cc3ccccc3cn2)[nH]1 | 5.01 |

[a] C=CC(=O)N1CC[C@@H](Oc2nc(-c3n[nH]c(=O)[nH]3)cc3ccccc23)C1
[b] O=c1[nH]nc(-c2cccnc2)[nH]1
// query Parameter check: reported IC50 is higher for which label, a or b ? Response format: the label of the selected entry.
// result b

----------
# assay: Half life in Beagle dog
# Format: ADME, Canis lupus familiaris
# measurement_setup: in vivo
recorded_endpoint: half-life (min)
Just the number please, in min, no unit attached.

// query Answer with the recorded half-life of C=CC(=O)N1CC[C@H](Oc2nc(-c3n[nH]c(=O)[nH]3)cc3ccccc23)C1 only.
// result 180

----------
# assay: Metabolic stability in Sprague-Dawley rat liver hepatocytes assessed as extraction ratio
recorded_endpoint: hepatic extraction ratio
Simply state the number, no unit and no words.

// query Answer with the recorded hepatic extraction ratio of C=CC(=O)N1CC[C@H](Oc2nc(-c3n[nH]c(=O)[nH]3)cc3ccccc23)C1 only.
// result 0.31

----------
# assay: Metabolic stability in human liver hepatocytes assessed as extraction ratio
# measurement_setup: mouse
recorded_endpoint: hepatic extraction ratio
Simply state the number, no unit and no words.

// query Answer with the recorded hepatic extraction ratio of C=CC(=O)N1CC[C@H](Oc2nc(-c3n[nH]c(=O)[nH]3)cc3ccccc23)C1 [TAK-020] only.
// result 0.21

----------
# assay: Metabolic stability in mouse liver hepatocytes assessed as extraction ratio
recorded_endpoint: hepatic extraction ratio
Simply state the number, no unit and no words.

// query Answer with the recorded hepatic extraction ratio of C=CC(=O)N1CC[C@H](Oc2nc(-c3n[nH]c(=O)[nH]3)cc3ccccc23)C1 [TAK-020] only.
// result 0.62

----------
# assay: Metabolic stability in Beagle dog liver hepatocytes assessed as extraction ratio
recorded_endpoint: hepatic extraction ratio
Simply state the number, no unit and no words.

// query Answer with the recorded hepatic extraction ratio of C=CC(=O)N1CC[C@H](Oc2nc(-c3n[nH]c(=O)[nH]3)cc3ccccc23)C1 only.
// result 0.48

----------
# tested_on: UniProt Q12809
# Sequence (Q12809 whole entry): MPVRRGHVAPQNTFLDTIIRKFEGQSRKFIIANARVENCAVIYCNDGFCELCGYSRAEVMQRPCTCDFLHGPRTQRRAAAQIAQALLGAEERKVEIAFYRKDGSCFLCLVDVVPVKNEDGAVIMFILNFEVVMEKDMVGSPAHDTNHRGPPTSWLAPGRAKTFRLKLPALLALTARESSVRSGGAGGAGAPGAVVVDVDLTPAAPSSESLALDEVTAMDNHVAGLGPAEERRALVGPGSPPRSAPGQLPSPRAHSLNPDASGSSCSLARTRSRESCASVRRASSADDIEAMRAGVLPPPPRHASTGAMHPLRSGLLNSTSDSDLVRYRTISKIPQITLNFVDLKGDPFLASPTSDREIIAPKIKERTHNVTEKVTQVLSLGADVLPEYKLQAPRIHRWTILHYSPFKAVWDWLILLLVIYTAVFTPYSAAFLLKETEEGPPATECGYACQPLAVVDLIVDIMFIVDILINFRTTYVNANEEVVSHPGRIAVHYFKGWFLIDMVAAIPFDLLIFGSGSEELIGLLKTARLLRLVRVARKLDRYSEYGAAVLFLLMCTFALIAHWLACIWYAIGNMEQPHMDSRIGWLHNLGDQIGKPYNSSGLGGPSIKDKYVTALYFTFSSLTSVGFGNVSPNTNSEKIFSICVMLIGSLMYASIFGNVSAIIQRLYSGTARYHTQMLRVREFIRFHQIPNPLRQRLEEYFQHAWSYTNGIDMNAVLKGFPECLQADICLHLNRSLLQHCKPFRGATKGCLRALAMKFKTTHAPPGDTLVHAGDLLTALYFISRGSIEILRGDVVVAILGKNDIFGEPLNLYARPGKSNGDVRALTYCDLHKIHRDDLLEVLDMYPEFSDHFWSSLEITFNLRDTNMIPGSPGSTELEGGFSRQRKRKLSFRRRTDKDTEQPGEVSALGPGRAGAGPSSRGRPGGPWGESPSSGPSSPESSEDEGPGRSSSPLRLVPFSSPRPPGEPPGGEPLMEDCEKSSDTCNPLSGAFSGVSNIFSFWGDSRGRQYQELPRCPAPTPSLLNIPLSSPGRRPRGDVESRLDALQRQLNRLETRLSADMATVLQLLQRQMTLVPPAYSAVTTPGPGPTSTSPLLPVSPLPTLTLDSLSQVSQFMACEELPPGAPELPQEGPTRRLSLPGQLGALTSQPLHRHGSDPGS
# assay: Inhibition of hERG at 13 uM
recorded_endpoint: inhibition at 13 µM (%)
Just the number please, in %, no unit attached.

// query Answer with the recorded inhibition at 13 µM of C=CC(=O)N1CC[C@H](Oc2nc(-c3n[nH]c(=O)[nH]3)cc3ccccc23)C1 [TAK-020] only.
// result 18

----------
# System: PDE3
# assay: Inhibition of PDE3 (unknown origin) assessed as remaining activity
# measurement_setup: human
recorded_endpoint: Activity (%)
Just the number please, in %, no unit attached.

// query Answer with the recorded Activity of C=CC(=O)N1CC[C@H](Oc2nc(-c3n[nH]c(=O)[nH]3)cc3ccccc23)C1 only.
// result 96

----------
# assay: Plasma protein binding in Sprague-Dawley rat measured by rapid equilibrium dialysis method
# Format: ADME, cell-free
# measurement_setup: read-out: PPB (converted)
recorded_endpoint: fraction unbound
Simply state the number, no unit and no words.

// query Answer with the recorded fraction unbound of C=CC(=O)N1CC[C@H](Oc2nc(-c3n[nH]c(=O)[nH]3)cc3ccccc23)C1 [TAK-020] only.
// result 0.098

----------
# assay: Thermodynamic solubility of the compound at pH 6.8 in GCDC
# Format: physicochemical
# measurement_setup: read-out: Therm_solubility
recorded_endpoint: solubility thermodynamic (µg/mL)
Just the number please, in µg/mL, no unit attached.

// query Answer with the recorded solubility thermodynamic of C=CC(=O)N1CC[C@H](Oc2nc(-c3n[nH]c(=O)[nH]3)cc3ccccc23)C1 [TAK-020] only.
// result 6.8

----------
# assay: In vivo stability in Sprague-Dawley rat liver assessed as extraction ratio at 70 ml/kg
recorded_endpoint: hepatic extraction ratio

// query Answer with the recorded hepatic extraction ratio of C=CC(=O)N1CC[C@H](Oc2nc(-c3n[nH]c(=O)[nH]3)cc3ccccc23)C1 only.
// result > 0.9

----------
# tested_on: UniProtKB Q06187
recorded_endpoint: IC50 (nM)

| input_smiles | IC50 (nM) |
| --- | --- |
| CC(C)COc1cccc(-c2n[nH]c(=O)[nH]2)n1 | 1580 |

[A] CC(C)Nc1nc(-c2n[nH]c(=O)[nH]2)cc2ccccc12
[B] NC(=O)c1nnc2ccccc2c1N
// query Identify the entry with the smaller IC50: A or B . Response format: the label of the selected entry.
// result A
(A: 20 nM, B: 3160 nM)

----------
# assay: Thermodynamic solubility of the compound at pH 1.2 in JP1 fluid
# Format: physicochemical
# measurement_setup: read-out: Therm_solubility
recorded_endpoint: solubility thermodynamic

// query Answer with the recorded solubility thermodynamic of C=CC(=O)N1CC[C@H](Oc2nc(-c3n[nH]c(=O)[nH]3)cc3ccccc23)C1 [TAK-020] only.
// result < 0.1 µg/mL

----------
# assay: GSH reactivity in pH 7.4 PBS buffer assessed as intrinsic reactivity by measuring percent remaining measured after 2 hrs
# Assay type: physicochemical
# measurement_setup: read-out: Stability
recorded_endpoint: remaining at 2 h (%)
Just the number please, in %, no unit attached.

// query Answer with the recorded remaining at 2 h of C=CC(=O)N1CC[C@H](Oc2nc(-c3n[nH]c(=O)[nH]3)cc3ccccc23)C1 [TAK-020] only.
// result 75

----------
# assay: Metabolic stability in monkey liver hepatocytes assessed as extraction ratio
# measurement_setup: rhesus monkey
recorded_endpoint: hepatic extraction ratio
Simply state the number, no unit and no words.

// query Answer with the recorded hepatic extraction ratio of C=CC(=O)N1CC[C@H](Oc2nc(-c3n[nH]c(=O)[nH]3)cc3ccccc23)C1 only.
// result 0.37

----------
# System: MDR1
# assay: Apparent permeability from apical to basolateral side in LLC-PK1-MDR1 cells
# Type: ADME, cell-based, Sus scrofa
# measurement_setup: pig
recorded_endpoint: Papp A→B (×10⁻⁶ cm/s)
Just the number please, in ×10⁻⁶ cm/s, no unit attached.

// query Answer with the recorded Papp A→B of C=CC(=O)N1CC[C@H](Oc2nc(-c3n[nH]c(=O)[nH]3)cc3ccccc23)C1 only.
// result 1.89

----------
# tested_on: Proto-oncogene tyrosine-protein kinase Src (Homo sapiens, UniProt P12931)
# Sequence (P12931 2-536 limits assumed): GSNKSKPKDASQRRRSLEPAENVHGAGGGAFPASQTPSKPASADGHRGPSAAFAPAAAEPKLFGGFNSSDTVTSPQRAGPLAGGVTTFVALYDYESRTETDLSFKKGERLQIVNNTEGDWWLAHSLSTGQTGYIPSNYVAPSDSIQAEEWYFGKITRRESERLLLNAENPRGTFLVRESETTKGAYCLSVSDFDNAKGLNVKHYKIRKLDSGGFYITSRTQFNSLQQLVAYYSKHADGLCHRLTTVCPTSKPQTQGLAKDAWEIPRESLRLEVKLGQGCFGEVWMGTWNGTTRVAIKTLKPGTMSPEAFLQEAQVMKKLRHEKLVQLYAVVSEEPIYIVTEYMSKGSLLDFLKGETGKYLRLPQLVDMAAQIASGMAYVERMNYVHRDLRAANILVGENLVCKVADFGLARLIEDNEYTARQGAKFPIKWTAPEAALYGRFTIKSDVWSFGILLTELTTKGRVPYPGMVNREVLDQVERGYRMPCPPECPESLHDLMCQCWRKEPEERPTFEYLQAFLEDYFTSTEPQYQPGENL
recorded_endpoint: pIC50
Friendly reminder that pIC50 comes from taking -log10 of the concentration in mol/L.

// query Answer with the recorded pIC50 of C=CC(=O)N1CC[C@H](Oc2nc(-c3n[nH]c(=O)[nH]3)cc3ccccc23)C1 [TAK-020] only.
// result 6.20

----------
# Test system: MDR1
# assay: Efflux ratio of apparent permeability in LLC-PK1-MDR1 cells
# measurement_setup: pig
recorded_endpoint: efflux ratio
Simply state the number, no unit and no words.

// query Answer with the recorded efflux ratio of C=CC(=O)N1CC[C@H](Oc2nc(-c3n[nH]c(=O)[nH]3)cc3ccccc23)C1 [TAK-020] only.
// result 10.8

----------
# assay: Oral bioavailability in Beagle dog
# Assay type: ADME, organism-based, Canis lupus familiaris
# measurement_setup: in vivo
recorded_endpoint: bioavailability (%)
Just the number please, in %, no unit attached.

// query Answer with the recorded bioavailability of C=CC(=O)N1CC[C@H](Oc2nc(-c3n[nH]c(=O)[nH]3)cc3ccccc23)C1 [TAK-020] only.
// result 6.5

----------
# assay: Half life in Sprague-Dawley rat
# Type: ADME
# measurement_setup: in vivo
recorded_endpoint: half-life (min)
Just the number please, in min, no unit attached.

// query Answer with the recorded half-life of C=CC(=O)N1CC[C@H](Oc2nc(-c3n[nH]c(=O)[nH]3)cc3ccccc23)C1 only.
// result 42

----------
# tested_on: Tyrosine-protein kinase BTK (Homo sapiens, UniProt Q06187)
# Sequence (Q06187 whole entry): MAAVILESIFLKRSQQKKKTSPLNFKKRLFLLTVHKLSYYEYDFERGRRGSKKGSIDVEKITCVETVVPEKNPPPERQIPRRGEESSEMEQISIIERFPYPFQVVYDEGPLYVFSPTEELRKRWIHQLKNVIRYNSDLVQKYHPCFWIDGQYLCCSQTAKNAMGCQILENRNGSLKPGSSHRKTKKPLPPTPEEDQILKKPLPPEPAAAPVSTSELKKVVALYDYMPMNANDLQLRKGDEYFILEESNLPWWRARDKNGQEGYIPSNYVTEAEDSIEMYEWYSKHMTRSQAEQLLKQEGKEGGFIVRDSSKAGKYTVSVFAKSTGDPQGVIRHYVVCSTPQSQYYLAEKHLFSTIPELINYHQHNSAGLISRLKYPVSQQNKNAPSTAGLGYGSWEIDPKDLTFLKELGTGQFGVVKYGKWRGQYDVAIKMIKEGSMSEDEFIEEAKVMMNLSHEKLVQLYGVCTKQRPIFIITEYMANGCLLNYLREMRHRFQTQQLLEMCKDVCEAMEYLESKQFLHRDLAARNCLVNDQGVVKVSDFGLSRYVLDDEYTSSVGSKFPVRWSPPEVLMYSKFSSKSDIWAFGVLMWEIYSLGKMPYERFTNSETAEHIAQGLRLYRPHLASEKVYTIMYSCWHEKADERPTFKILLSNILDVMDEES
# assay: Inhibition of human Btk in human Raji cells assessed as PhosY223 measured after 30 mins by cellular HTRF assay
recorded_endpoint: EC50 (nM)

| input_smiles | recorded_endpoint | recorded_value |
| --- | --- | --- |
| CCCOc1nc(-c2n[nH]c(=O)[nH]2)cc2ccccc12 | EC50 | 398 |

[a] C=CC(=O)N1CC[C@H](Oc2nc(-c3n[nH]c(=O)[nH]3)cc3ccccc23)C1
[b] C=CC(=O)N1CC[C@@H](Oc2nc(-c3n[nH]c(=O)[nH]3)cc3ccccc23)C1
[c] CC(C)Nc1nc(-c2n[nH]c(=O)[nH]2)cc2ccccc12
[d] CCNc1nc(-c2n[nH]c(=O)[nH]2)cc2ccccc12
[e] CC(C)Oc1nc(-c2n[nH]c(=O)[nH]2)cc2ccccc12
// query Ordering: ascending EC50. Put the labels in the requested order and write them down.
// result a, e, c, b, d
(a: 1.26 nM, e: 100 nM, c: 158 nM, b: 501 nM, d: 794 nM)
